Values were extracted from PubChem BioAssay (NCI).

# assay_explanation: NCI Yeast Anticancer Drug Screen. Data for the cln2 rad14 strain (AID 165);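 note: 0% = growth equal to vehicle treated cultures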
# measurement_setup: S. cerevisiae cln2 rad14 strain, at 50.0 µM, hits give high values
The panel holds about 79,000 compounds, 15% with a hit somewhere; the sample as a whole holds those more often.
Outcome label depends on growth inhibition relative to 20%: at/above gives True, below gives False.

- molecule: "Cc1ccc(NC(=O)/C=C/c2ccccc2)cc1"
  group: "False"
- molecule: "Clc1ccccc1NCSC1=NCCS1"
  group: "False"
- molecule: "S=c1[nH]nc(COc2cccc3cccnc23)n1-c1ccccc1"
  group: "True"
- molecule: "Nc1c(Cl)ncnc1NCCc1ccccc1"
  group: "False"
- molecule: "COc1ccc(NC(=O)COc2ccc(Cl)cc2Cl)cc1"
  group: "True"
- molecule: "Cc1ccc2ccccc2c1CP(=O)(O)O"
  group: "False"
- molecule: "O=c1[nH]cnc2c1CN(c1ccc(Cl)cc1)C2"
  group: "False"
- molecule: "O=C(O)COc1cc([N+](=O)[O-])c(Cl)cc1Cl"
  group: "False"
- molecule: "COC(=O)c1ccccc1N=Cc1ccc(N(CCC#N)S(=O)(=O)c2ccccc2)cc1"
  group: "False"
- molecule: "CCOC(=O)/C(O)=C\\c1cc(Br)c(OC)cc1[N+](=O)[O-]"
  group: "False"
- molecule: "CC(=O)OCCn1c(C)nc2cc(Cl)c(Cl)cc21"
  group: "True"
- molecule: "CN(C)CCSc1nc2ccccc2o1"
  group: "True"
- molecule: "CCN(CC)P1(=O)C=C(C)C2C1C1C=C(C)C2P1(=O)N(CC)CC (stereo not drawn)"
  group: "False"

----------
# assay_explanation: NCI Yeast Anticancer Drug Screen. Data for the mec2-1 strain (AID 157)
# measurement_setup: S. cerevisiae mec2-1 strain, at 50.0 µM, hits give high values
About 79,000 compounds went through this panel and 15% of them were active in at least one assay; those are over-represented in the sample as a whole.

- molecule: "CCN1N=CSC12C(=O)N(c1ccccc1)C(=O)N2c1ccccc1 (stereo unspecified)"
  growth inhibition, %: -15.1
- molecule: "Cc1cc(N(CCC#N)CCC#N)ccc1/C(N=Nc1ccccc1)=N\\NC(=O)c1cc(Cl)ccc1O"
  growth inhibition, %: 9.8
- molecule: "CC(C)CCC1(C2CCOCC2)NC(=O)NC1=O (stereo unspecified)"
  growth inhibition, %: -6.6
- molecule: "CCOC(=O)c1c(Br)c(-c2ccc([N+](=O)[O-])cc2)c(Br)n1C"
  growth inhibition, %: -7.4
- molecule: "NC1=NS(=O)(=O)Nc2nc(-c3ccc([N+](=O)[O-])cc3)[nH]c21"
  growth inhibition, %: -45.8
- molecule: "COc1ccccc1NC(=O)CC(=O)N/N=C/c1ccc(N(CCC#N)S(=O)(=O)c2ccccc2)cc1"
  growth inhibition, %: 0.8
- molecule: "CC/C(=C/CO)c1ccccc1"
  growth inhibition, %: 5.65
- molecule: "O=C(CC[n+]1ccccc1)NCCCCCCNC(=O)CC[n+]1ccccc1"
  growth inhibition, %: -31.9
- molecule: "Cc1ccc(Sc2ccc3ccccc3c2)nc1"
  growth inhibition, %: -8.2
- molecule: "CN(C=O)c1ccc(C(=O)O)cc1"
  growth inhibition, %: 11.9
- molecule: "COC(=O)/C=C(\\C(=O)OC)c1cc(C)c2cc(C(C)C)ccc(C)c1-2"
  growth inhibition, %: -22.2
